Listed compounds paired with reported composite z-score
Target Under Test: Carbonic anhydrase 2 (Homo sapiens) (UniProt P00918)
Procedure Text: CAII small-molecule binders, profiling panel, biochemical, small-molecule microarray, Alexa647-labelled CAII (AID 1122)
Measurement Conditions: CAII-A647 binding fluorescence, higher = more signal
When you answer, write just the number.

{"columns": ["Compound", "Target Under Test", "Recorded Measurement"],
 "data": [
  ["COc1ccc(O[C@H]2C=C[C@@H](c3ccccc3)O[C@@H]2COC(=O)CCC(C)=NOC[C@@H](O)[C@H]2O[C@@H]3OC(C)(C)O[C@@H]3[C@H]2O)cc1", "Carbonic anhydrase 2 (Homo sapiens) (UniProt P00918)", 0.325],
  ["CC(C)CON=C1C[C@@H](O)[C@@H](O)[C@@H]2[C@@H]3C(=O)N(C4CCCCC4)C(=O)[C@@H]3CC[C@H]12", "Carbonic anhydrase 2 (Homo sapiens) (UniProt P00918)", 0.445],
  ["COC(=O)[C@H](C)NC(=O)CCC1CC(OC(=O)NCc2ccc3c(c2)OCO3)CC2(CCCC(COC(=O)NCC3CCCCC3)O2)O1 (some centres undefined)", "Carbonic anhydrase 2 (Homo sapiens) (UniProt P00918)", 0.234],
  ["CCCCC#C[C@@H]1C=C[C@H](Oc2ccc(C(=O)OC)cc2)[C@@H](COC(=O)OCC)O1", "Carbonic anhydrase 2 (Homo sapiens) (UniProt P00918)", 0.39],
  ["COC(=O)[C@@H]1CC[C@H](C)[C@@H](c2ccc(C)cc2)N1C(=O)c1ccc(C=NOCC[C@@H]2C=C[C@H](OC(C)=O)[C@@H](COC(C)=O)O2)cc1", "Carbonic anhydrase 2 (Homo sapiens) (UniProt P00918)", -0.0127]
]}

I have this compound here, CC(C)C[C@H](NC(=O)CCC1CC(OC(=O)NCc2cccc3ccccc23)CC2(CCCC(COC(=O)NCc3ccccc3)O2)O1)C(=O)NCC(c1ccccc1)c1ccccc1 (some centres undefined) , and I need its recorded composite z-score.
0.404

I have this compound here, "Cn1c(=O)n2n(c1=O)[C@H]1[C@H](O)[C@@H]3O[C@@H]3C(=O)[C@H]1CC2" , and I need its recorded composite z-score.
-0.0126

I have this compound here, "CCCCc1nc2c(c3c1C[C@H](C)OC3)CN(CCOc1ccccc1)CC2" , and I need its recorded composite z-score.
0.221

I have this compound here, "CON=C(C)CCC(=O)OC[C@H]1O[C@H](c2ccccc2)C=C[C@@H]1Oc1ccc(OC)cc1" , and I need its recorded composite z-score.
-0.185

I have this compound here, "CC=CC1=C(CO)C(=O)[C@@H]2O[C@@H]2C1=O" , and I need its recorded composite z-score.
0.298

I have this compound here, "CCc1cc2c(nc1CC)CCN(CCC(C)=NO[C@H](C)c1cn([C@@H]3COC[C@H]3O)nn1)C2" , and I need its recorded composite z-score.
0.202

I have this compound here, "C=CC[C@@H]1C=C[C@H](ON=C2[C@H]3CCn4c(=O)n(-c5ccccc5)c(=O)n4[C@H]3[C@H](O)[C@@H]3O[C@H]23)[C@@H](CO)O1" , and I need its recorded composite z-score.
0.256

I have this compound here, "COC(=O)CC=C[C@@H](C)[C@@H](C=NO[C@@H]1O[C@H](COC(C)=O)[C@@H](OC(C)=O)[C@H](OC(C)=O)[C@H]1OC(C)=O)OC" , and I need its recorded composite z-score.
-0.605

I have this compound here, "CCCNC(=O)OC[C@H]1O[C@H](CCON=Cc2ccc(C(=O)N3[C@H](c4ccc(C)cc4)[C@@H](C)CC[C@H]3C(=O)OC)cc2)C=C[C@@H]1Oc1ccc(OC)cc1" , and I need its recorded composite z-score.
-0.0309

###

Listed compounds paired with reported composite z-score
Procedure Text: small-molecule binders of probe aLefty1, primary screen, biochemical, small-molecule microarray, 635/667 nm fluorescence (AID 1153);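 further: score merges spot fluorescence with signal-to-noise ratio from the scanned slide images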
Measurement Conditions: higher = more signal
When you answer, write just the number.

{"columns": ["Compound", "composite z-score"],
 "data": [
  ["CCN1C(=O)[C@H]2[C@H]3[C@H](O)[C@H](O)CC(=O)[C@@H]3CC[C@H]2C1=O", -0.149],
  ["CC1O[C@H]2C3=C(C(=O)[C@@H]4O[C@@H]4[C@H]3O)[C@@H]1C1[C@@H](C)OC=C3[C@H](O)C4O[C@@H]4C(=NOCc4ccccc4)[C@]312 (some centres not stated)", -0.184],
  ["O=C1C=C[C@@H](O)[C@@H]2[C@@H]3C(=O)N(c4ccc(F)cc4F)C(=O)[C@@H]3CC[C@@H]12", -0.0559],
  ["COc1cc(O)c(C(=O)C=Cc2ccc3c(c2)OCO3)c(OC)c1", 0.0056],
  ["COC(=O)CC=C[C@H](C)[C@@H](OCc1cccc(Br)c1)[C@@H](C)[C@H](OC)C1CCCCC1", -0.333]
]}

I have this compound here, CCOC(=O)[C@H](Cc1ccccc1)NC(=O)CCC1CC(OC(=O)NCc2ccc3c(c2)OCO3)CC2(CCCC(COC(=O)NCCc3ccccc3OC)O2)O1 (some centres not stated) , and I need its recorded composite z-score.
-0.0547

I have this compound here, "CCN1C(=O)[C@H]2[C@H]3[C@H](O)[C@H](O)CC(=NOC[C@H]4O[C@H](c5ccccc5)C=C[C@@H]4Oc4ccc(OC)cc4)[C@@H]3CC[C@H]2C1=O" , and I need its recorded composite z-score.
0.171

###

Test system: Wnt5a (protein binding on small-molecule microarray)
Procedure Text: Wnt5a binders on small-molecule microarray, primary screen, biophysical, 635/667 nm fluorescence (AID 1142);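 further: fluorescence read at 667 nm with signal to noise per printed feature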
Measurement Conditions: 635 nm fluorescence, higher = more signal
Measure: composite z-score
When you answer, write just the number.

The following molecules have reported results that may help.
{"columns": ["Mol Smiles", "Measure", "Recorded Measurement"],
 "data": [
  ["C[C@H]1Cc2c(COc3ccccc3)nc3c(c2CO1)CN(CCOc1ccccc1)CC3", "composite z-score", 0.0543],
  ["O=C(NN=C1C[C@@H](O)[C@@H](O)[C@@H]2[C@@H]3C(=O)N(Cc4ccccc4)C(=O)[C@@H]3CC[C@@H]12)OCc1ccccc1", "composite z-score", -0.0896],
  ["COc1ccc(O[C@H]2C=C[C@@H](c3ccccc3)O[C@@H]2CON=C(C)CCC(=O)OC[C@H]2O[C@H](c3ccccc3)C=C[C@@H]2Oc2ccc(OC)cc2)cc1", "composite z-score", -0.874]
]}

Next item in the queue.
I have this molecule here, "C#CCCCON=C1[C@H]2CCn3c(=O)n(C)c(=O)n3[C@H]2[C@H](O)[C@@H]2O[C@H]12" , and I need its recorded composite z-score.
0.119

###

Procedure Text: binders of probe aFGF2 on microarray, primary screen, stem cell growth factor project, biochemical, small-molecule microarray, fluorescence 635/667 (AID 1067);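 further: measures binding of biotinylated aFGF2 protein to printed compounds on slides; z-score merges feature fluorescence and signal-to-noise across triplicate slides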
Measurement Conditions: higher = more signal
Measure: composite z-score
When you answer, write just the number.

The following molecules have reported results that may help.
{"columns": ["Molecule", "composite z-score"],
 "data": [
  ["C=CC1=C[C@H](O)[C@@H]2O[C@@H]2C12OCCCO2", -0.204],
  ["CO[C@H](C1CCCCC1)[C@H](C)C=CCC(=O)OCCCc1ccccc1", -0.155],
  ["CCOC(=O)[C@H](Cc1ccccc1)NC(=O)CCC1CC(OC(=O)NCc2ccc3c(c2)OCO3)CC2(CCCC(COC(=O)NCCC(C)C)O2)O1 (stereo not given in full)", -0.0193],
  ["CCc1cc2c(nc1CC)CCN(CCC(C)=NO[C@H](C)c1cn([C@@H]3COC[C@H]3O)nn1)C2", -0.0015]
]}

Next item in the queue.
I have this molecule here, "CON=C[C@@H](C)[C@H](OCc1ccccc1)C(C)C" , and I need its recorded composite z-score.
-0.138

###

Target Under Test: Neurogenic locus notch homolog protein 3 (Homo sapiens) (UniProt Q9UM47)
Sequence (Q9UM47 whole entry, looked up): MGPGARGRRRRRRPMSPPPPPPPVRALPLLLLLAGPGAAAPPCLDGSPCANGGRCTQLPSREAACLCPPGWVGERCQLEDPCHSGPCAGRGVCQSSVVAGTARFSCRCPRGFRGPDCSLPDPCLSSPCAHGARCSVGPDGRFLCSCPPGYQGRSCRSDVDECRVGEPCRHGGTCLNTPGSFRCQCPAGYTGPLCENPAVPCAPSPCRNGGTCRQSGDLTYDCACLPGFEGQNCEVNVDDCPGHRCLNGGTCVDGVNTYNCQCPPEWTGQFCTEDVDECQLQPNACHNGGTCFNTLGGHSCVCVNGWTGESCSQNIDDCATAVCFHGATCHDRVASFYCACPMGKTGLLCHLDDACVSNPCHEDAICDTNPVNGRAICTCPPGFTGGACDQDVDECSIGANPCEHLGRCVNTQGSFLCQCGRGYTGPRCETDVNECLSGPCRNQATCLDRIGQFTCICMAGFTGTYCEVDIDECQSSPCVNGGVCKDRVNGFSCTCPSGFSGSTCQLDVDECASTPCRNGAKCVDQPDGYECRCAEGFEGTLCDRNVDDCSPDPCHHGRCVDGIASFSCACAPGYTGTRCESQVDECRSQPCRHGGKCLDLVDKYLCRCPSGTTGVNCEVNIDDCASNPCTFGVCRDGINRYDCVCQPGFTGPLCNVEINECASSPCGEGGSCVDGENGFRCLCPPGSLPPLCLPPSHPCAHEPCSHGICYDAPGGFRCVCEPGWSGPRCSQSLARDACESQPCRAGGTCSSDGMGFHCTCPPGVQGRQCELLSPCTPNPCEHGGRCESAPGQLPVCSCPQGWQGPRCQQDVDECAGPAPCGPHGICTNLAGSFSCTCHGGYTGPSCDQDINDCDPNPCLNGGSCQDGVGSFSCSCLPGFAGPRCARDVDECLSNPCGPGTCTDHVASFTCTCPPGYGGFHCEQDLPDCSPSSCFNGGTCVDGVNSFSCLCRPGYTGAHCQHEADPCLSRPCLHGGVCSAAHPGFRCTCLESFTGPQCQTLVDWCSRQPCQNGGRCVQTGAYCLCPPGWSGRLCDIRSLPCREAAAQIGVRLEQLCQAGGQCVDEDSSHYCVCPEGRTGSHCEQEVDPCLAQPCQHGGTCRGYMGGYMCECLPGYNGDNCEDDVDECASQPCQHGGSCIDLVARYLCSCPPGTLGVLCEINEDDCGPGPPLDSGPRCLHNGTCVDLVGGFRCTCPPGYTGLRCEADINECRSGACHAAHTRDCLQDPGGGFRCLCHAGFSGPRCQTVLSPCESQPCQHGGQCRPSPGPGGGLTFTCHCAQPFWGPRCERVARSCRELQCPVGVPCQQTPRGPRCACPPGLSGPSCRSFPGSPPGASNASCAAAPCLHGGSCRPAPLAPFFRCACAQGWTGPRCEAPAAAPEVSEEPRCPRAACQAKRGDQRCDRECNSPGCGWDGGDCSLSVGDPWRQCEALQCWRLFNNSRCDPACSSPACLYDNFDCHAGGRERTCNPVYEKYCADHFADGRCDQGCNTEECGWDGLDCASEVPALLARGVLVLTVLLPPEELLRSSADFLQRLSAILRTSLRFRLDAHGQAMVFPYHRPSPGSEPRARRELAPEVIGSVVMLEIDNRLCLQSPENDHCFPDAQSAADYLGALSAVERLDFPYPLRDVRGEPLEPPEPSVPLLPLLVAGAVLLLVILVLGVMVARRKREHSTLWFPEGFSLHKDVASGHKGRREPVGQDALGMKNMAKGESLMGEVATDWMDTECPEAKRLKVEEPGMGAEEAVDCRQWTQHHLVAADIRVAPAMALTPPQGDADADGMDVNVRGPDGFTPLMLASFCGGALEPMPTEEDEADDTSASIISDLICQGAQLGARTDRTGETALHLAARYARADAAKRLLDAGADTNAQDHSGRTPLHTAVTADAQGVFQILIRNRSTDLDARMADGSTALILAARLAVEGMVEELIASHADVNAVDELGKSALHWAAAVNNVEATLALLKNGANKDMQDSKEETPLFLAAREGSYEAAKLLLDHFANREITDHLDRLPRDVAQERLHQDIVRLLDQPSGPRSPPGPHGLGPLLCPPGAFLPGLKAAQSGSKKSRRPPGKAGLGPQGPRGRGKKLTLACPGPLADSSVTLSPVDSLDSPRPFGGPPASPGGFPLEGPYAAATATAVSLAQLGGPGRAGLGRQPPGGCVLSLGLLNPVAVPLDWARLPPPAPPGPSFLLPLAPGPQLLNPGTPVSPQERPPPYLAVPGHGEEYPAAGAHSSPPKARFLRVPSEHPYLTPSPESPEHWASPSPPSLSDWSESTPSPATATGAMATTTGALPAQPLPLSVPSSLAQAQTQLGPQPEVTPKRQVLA
Procedure Text: NOTCH3 binders on small-molecule microarray, primary screen, biochemical, 635/667 nm fluorescence (AID 1096)
Measurement Conditions: NOTCH3 binding, 635 nm fluorescence, higher = more signal
Listed compounds paired with reported composite z-score
When you answer, write just the number.

The following compounds have reported results that may help.
{"columns": ["Mol Smiles", "composite z-score"],
 "data": [
  ["COc1ccc(O[C@H]2C=C[C@@H](c3ccccc3)O[C@@H]2COC(=O)CCC(C)=NOC[C@@H](O)[C@H]2O[C@@H]3OC(C)(C)O[C@@H]3[C@H]2O)cc1", 0.763],
  ["CC(C)=CCCC(C)=CCON=C1C[C@@H](O)[C@@H](O)[C@@H]2[C@@H]3C(=O)N(C(C)(C)C)C(=O)[C@@H]3CC[C@H]12", 0.539],
  ["CCN1C(=O)[C@H]2[C@H]3[C@H](O)[C@H](O)CC(=NOCC(C)C)[C@@H]3CC[C@H]2C1=O", 1.12]
]}

I have this compound here, "CCN1C(=O)[C@H]2[C@H]3[C@H](O)[C@H](O)CC(=O)[C@@H]3CC[C@H]2C1=O" , and I need its recorded composite z-score.
0.717
